TEST_DETAILS: Stability in P. falciparum activity test medium
Format: physicochemical
ASSAY_CONDITIONS: P. falciparum in vitro activity test medium
Kindly state half-life at 1 μM for each of the entries shown.
One number for each entry, in min.

{"CPD_SMILES": "O=C1Nc2ccccc2C(=O)CCc2cc(F)ccc21", "half-life at 1 μM / min": 1500}

Please examine the following record next.
Exam item: Let me know recorded half-life at 1 μM for O=C1Nc2cc(F)cc(F)c2C(=O)CCc2ccccc21 , thanks.
Marked response: 282

====

TEST_DETAILS: In vivo pharmacokinetics in mice
Design: species or system male Swiss outbred mice
ASSAY_CONDITIONS: male, Swiss outbred, mouse, plasma, iv
PARAMETER: clearance (mL/min/kg)
Give bare numbers, in mL/min/kg.

Exam item: Let me know recorded clearance for O=C1Nc2cc(F)cc(F)c2C(=O)CCc2ccccc21 , thanks.
Marked response: 147
